# target_of_assay: hGIPR (Homo sapiens)
# Sequence (P48546 22-466): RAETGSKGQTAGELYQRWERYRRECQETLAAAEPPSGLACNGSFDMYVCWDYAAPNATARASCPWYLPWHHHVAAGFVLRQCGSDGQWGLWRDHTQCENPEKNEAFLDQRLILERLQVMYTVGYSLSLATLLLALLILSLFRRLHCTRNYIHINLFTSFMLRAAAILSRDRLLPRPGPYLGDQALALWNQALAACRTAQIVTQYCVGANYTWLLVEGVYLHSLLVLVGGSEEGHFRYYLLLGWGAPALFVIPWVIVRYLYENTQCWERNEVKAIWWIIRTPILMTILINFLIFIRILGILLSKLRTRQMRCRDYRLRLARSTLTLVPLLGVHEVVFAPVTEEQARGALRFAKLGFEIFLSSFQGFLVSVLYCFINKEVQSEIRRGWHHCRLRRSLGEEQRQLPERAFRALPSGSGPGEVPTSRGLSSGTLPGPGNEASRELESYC
# experiment_notes: Functional cAMP activation in the presence of 0.1% casein (no HSA);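 also: intracellular cAMP rise after 30 min at 37 °C read by HTRF against a standard curve, scaled between buffer alone (0%) and top control ligand concentration (100%), four-parameter fit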
# Format: cell-based
# measurement_setup: in the presence of 0.1% casein (no HSA); geometric mean; read-out: Relative cAMP EC50, hGIPR
pEC50: −log10 of the molar value. Starred links: 1 amine or outer side, 2 acyl side, 3 side chain; linkers in the order of their positions; H or OH if unused. Non-standard residues stand in square brackets, D forms with d. Groups on a side chain read outwards from the residue. No end group written: not given here. *: point of attachment. C20 diacid = O=C(O)CCCCCCCCCCCCCCCCCCC(=O)*; C18 diacid = O=C(O)CCCCCCCCCCCCCCCCC(=O)*; Phe(4-CN) = N#Cc1ccc(C[C@H](N)C(=O)O)cc1; αMePhe(2-F) = C[C@](N)(Cc1ccccc1F)C(=O)O; γGlu = O=C(O)[C@H](CCC(=O)[*:2])N[*:1]; αMe4Pal = C[C@](N)(Cc1ccncc1)C(=O)O; αMeY = C[C@](N)(Cc1ccc(O)cc1)C(=O)O; 4Pal = N[C@@H](Cc1ccncc1)C(=O)O; αMeL = CC(C)C[C@](C)(N)C(=O)O; Orn = NCCC[C@H](N)C(=O)O; AEEA = NCCOCCOCC(=O)O; Aib = CC(C)(N)C(=O)O
endpoint_label: pEC50

- H-Y[Aib]QGTFTSD[4Pal]SQ[αMeL]LD[Orn]K([AEEA-γGlu-C18 diacid])AQ[αMe4Pal]AFI[dE][αMeY]LIEGGPSSGAPPPSGSEE-NH2 [Example 1042]: 8.89
- H-Y[Aib]QGTFTSD[4Pal]SR[αMeL]LDKK([AEEA-γGlu-C18 diacid])AQ[Aib]AFIEYLLE[Aib]GESSGAPPPSGS-NH2 [Example 132]: 9.68
- Y[Aib]QGTFTSD[4Pal]SQ[αMeL]LD[Orn]K([γGlu-γGlu-C18 diacid])AQ[αMe4Pal]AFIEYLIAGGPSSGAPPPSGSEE-NH2 [Example 1031]: 9.84
- H-Y[Aib]QGT[αMePhe(2-F)]TSD[Phe(4-CN)]SILLDKQAQK([AEEA-AEEA-γGlu-C20 diacid])AFIQYLLEGGPSSGEPPPSEG-NH2 [Example 353]: 9.90
- Y[Aib]QGTFTSD[4Pal]SQ[αMeL]LDKK([γGlu-γGlu-C18 diacid])AQ[αMe4Pal]AFIE[αMe4Pal]LIE[Aib]GPSSGAPPPSGSEE-NH2 [Example 1122]: 9.96

Reference for the values: patent US20240270821A1
